Give measured growth for each item. Keep answers brief.
# System: M14 melanoma
# experiment: NCI-60 one-dose screen, 48 h (100 = growth as untreated, 0 = no growth, -100 = all killed)
# run.conditions: 10 µM unless noted
The panel holds about 83,000 compounds, 20% with a hit somewhere; the sample as a whole holds those more often.
Lab book: enter the figure in %, no units written.

# molecule COc1cc2c(cc1OCCCN1CCN(CCCOc3cc4c(cc3OC)C(=O)N3CCC[C@H]3C=N4)CC1)C=CC(C)(C)O2 ; its growth = -74.2

# molecule CCOc1ccccc1Cn1ccnc1CCc1c(Cl)c(O)cc(O)c1C(=O)OC ; its growth = 95.2

# molecule N#CC1=C(N)Oc2c(ccc3ccccc23)C1c1ccccc1 (configuration not stated) ; its growth = 3.13

# molecule O=S(=O)(Nc1ccc(Cl)c(C(F)(F)F)c1)c1ccc(-c2cnc(C3CC3)o2)cc1 ; its growth = 10.9

# molecule c1csc(-c2ccc(CNc3c4ccccc4nc4ccccc34)cc2)c1 ; its growth = -74.4

# molecule CCOC(=O)n1cc(-c2nonc2-c2cn(C(=O)OCC)c3ccc(Br)cc23)c2ccccc21 ; its growth = 78.8

# molecule COC(=O)CC[C@H](C)[C@H]1CC[C@H]2[C@@H]3CC[C@@H]4CC5(CC[C@]4(C)[C@H]3CC(=O)[C@]12C)Nc1ccccc1NC5=NC(C)(C)C (some centres not stated) ; its growth = 84.9

# molecule C[C@@H](CO)[C@@H]1CCC=C2CC[C@]3(C)[C@H](CC[C@@H]4[C@@]5(C)CCCNC(C)(C)[C@@H]5CC[C@]43C)[C@H]21 ; its growth = 30.9

# molecule O=C(Cn1cc(CSc2nc3ccccc3o2)nn1)Nc1ccc(F)cc1F ; its growth = 108

# molecule C[PH+](c1nc2ccccc2nc1[PH+](C)C(C)(C)C)C(C)(C)C.C[PH+](c1nc2ccccc2nc1[PH+](C)C(C)(C)C)C(C)(C)C.[Au+].[Cl-] (configuration not stated) ; its growth = -100

# molecule CCCCCCC12CCC(=O)N1CCc1cncn12 (configuration not stated) ; its growth = 113

# molecule Cc1cc(C)c2c(c1)N(C)c1ncnc(-n3cnc4cc(C)ccc43)c1CC2C (configuration not stated) ; its growth = 5.2

# molecule O=C(Nc1ccc(Oc2cccc(F)c2)c(Cl)c1)c1cccnc1 ; its growth = 15.9

# molecule CCCCCCCCCc1ccc(OCCOCCOCCOCCOCCOCCOCCOCCOCCO)cc1 ; its growth = -11.3

# molecule Oc1c(I)cc(I)cc1CNCCN(Cc1ccccn1)Cc1ccccn1 ; its growth = -32.5

# molecule Fc1ccc(CNc2c3ccccc3nc3ccccc23)c(F)c1 ; its growth = 55.3

# molecule Cc1ccc(Nn2c(SCC(=O)Nc3nc(-c4ccccc4)cs3)nc(C)c2C)cc1 ; its growth = 77

# molecule CCOC(=O)C1=C(c2ccccc2)N=C2SC=C(c3ccc(Cl)cc3)N2C1c1ccc(Br)cc1 (configuration not stated) ; its growth = 83.7

# molecule Cc1nc2sc(C(=O)Nc3cccc(Br)c3)c(N)c2cc1C(O)c1ccccc1 (configuration not stated) ; its growth = 16.7

# molecule O=C1c2ccc3c4c5ccc(c24)C(=O)N1CCCOCCCCOCCCNCc1ccc(cc1)CNCCCOCCCCOCCCN(C3=O)C5=O ; its growth = -85.3

# molecule N=C(N)c1ccc(-c2ccc(-c3ccc(Cl)cc3Cl)s2)cc1 ; its growth = 41.5

# molecule COc1ccc(-c2nc3c(ncc4ccc(=O)[nH]c43)s2)cc1 ; its growth = 74.7

The values you see were collected from PubChem BioAssay (NCI).
